Molecular target: human TRPV1 (Homo sapiens)
Construct: expressed in transfected cells
Test: Acid Activation Assay (pH 5.0, FLIPR intracellular Ca2+, recombinant HEK293 cells)
Format: cell-based
Settings: percentage of maximal pH 5.0-induced response remaining; HEK293 hTRPV1; max concentration 37.5 μM
Rule: measured human TRPV1 H+ (max % remain) below 50% gets True; anything equal to or greater than 50% gets False.

>>> discrete_label("O=C(Nc1c(F)ccc2c1C[C@H](O)C2)N[C@@H]1CC(CF)(CF)Oc2cc(Cl)ccc21 [Example 175]")
"True"
>>> discrete_label("CCC1(CC)C[C@@H](NC(=O)Nc2cccc3c2C[C@H](O)C3)c2ccc(Cl)cc2O1 [Example 54]")
"False"
>>> discrete_label("CC1(C)C[C@@H](NC(=O)Nc2cccc3c2C[C@H](O)C3)c2ccccc21 [Example 63]")
"False"
>>> discrete_label("O=C(Nc1cccc2c1C[C@@H](O)C2)N[C@H]1CC(CF)(CF)Oc2cc(Cl)ccc21 [Example 98]")
"True"
>>> discrete_label("O=C(Nc1cccc2c1CC(O)C2)NC1c2ccccc2OCC1Cc1ccc(Cl)c(Cl)c1 (centres unmarked) [Example 112]")
"False"
>>> discrete_label("CC1(C)C[C@@H](NC(=O)Nc2cccc3c2C[C@H](O)C3)c2ccc(Cl)cc2O1 [Example 13]")
"False"
>>> discrete_label("O=C(Nc1cccc2c1C[C@H](O)C2)N[C@@H]1CC(CF)(CF)Oc2cc(F)ccc21 [Example 129]")
"False"
>>> discrete_label("O=C(Nc1cccc2c1CC(O)C2)NC1CC2(CCCCC2)Oc2ccccc21 (centres unmarked) [Example 123]")
"False"

* * *

Measured IC50 of individual entries
Target: human TRPV1 (Homo sapiens)
Construct: expressed in transfected cells
Assay: Capsaicin Activation Assay (FLIPR intracellular Ca2+, recombinant HEK293 cells)
Format: cell-based
Details: recombinant HEK293 cells expressing hTRPV1; 50 nM capsaicin; read-out: human TRPV1 capsaicin IC50
MEASURE_NAME: IC50 (nM)

>>> readout_value("C[C@]1(C(F)F)C[C@@H](NC(=O)Nc2cccc3c2C[C@H](O)C3)c2ccccc2O1 [Example 127]")
260
>>> readout_value("C[C@]1(CF)C[C@@H](NC(=O)Nc2c(F)ccc3c2CC(O)C3)c2ccc(Cl)cc2O1 (stereo partly shown) [Example 25]")
41
>>> readout_value("O=C(Nc1cccc2c1C[C@H](O)C2)N[C@@H]1CCc2cc(F)ccc21 [Example 92]")
270
>>> readout_value("O=C(Nc1cccc2c1C[C@H](O)C2)N[C@@H]1CCOc2ccccc21 [Example 47]")
4100

* * *

Some compounds, each annotated with its measured human TRPV1 H+ (max % remain).
Target: human TRPV1 (Homo sapiens, UniProt Q8NER1)
Construct: expressed in transfected cells
Sequence (Q8NER1 whole entry): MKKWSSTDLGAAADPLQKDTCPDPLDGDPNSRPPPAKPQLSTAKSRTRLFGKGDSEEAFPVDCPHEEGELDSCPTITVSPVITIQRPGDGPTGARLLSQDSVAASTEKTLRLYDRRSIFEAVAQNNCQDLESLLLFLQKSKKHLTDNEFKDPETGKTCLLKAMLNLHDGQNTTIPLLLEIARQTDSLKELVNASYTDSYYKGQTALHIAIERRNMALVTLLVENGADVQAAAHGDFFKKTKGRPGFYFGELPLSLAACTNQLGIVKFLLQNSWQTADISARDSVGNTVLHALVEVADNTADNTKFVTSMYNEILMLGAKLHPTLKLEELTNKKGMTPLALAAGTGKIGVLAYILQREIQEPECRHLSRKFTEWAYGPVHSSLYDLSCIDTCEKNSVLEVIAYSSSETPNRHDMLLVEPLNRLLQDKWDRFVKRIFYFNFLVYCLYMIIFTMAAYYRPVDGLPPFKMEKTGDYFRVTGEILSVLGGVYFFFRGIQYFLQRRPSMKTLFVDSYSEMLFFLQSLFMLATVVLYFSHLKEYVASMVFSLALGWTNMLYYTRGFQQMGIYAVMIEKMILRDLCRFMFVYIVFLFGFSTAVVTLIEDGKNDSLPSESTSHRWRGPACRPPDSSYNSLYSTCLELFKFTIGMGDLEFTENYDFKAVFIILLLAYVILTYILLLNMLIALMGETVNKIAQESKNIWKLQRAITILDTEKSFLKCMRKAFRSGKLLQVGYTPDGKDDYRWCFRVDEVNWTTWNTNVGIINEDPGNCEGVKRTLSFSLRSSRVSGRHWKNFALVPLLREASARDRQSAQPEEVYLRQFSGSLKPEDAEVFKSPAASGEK
Experiment: Acid Activation Assay (pH 5.0, FLIPR intracellular Ca2+, recombinant HEK293 cells)
Format: cell-based
Details: percentage of maximal pH 5.0-induced response remaining; HEK293 hTRPV1; max concentration 37.5 μM
MEASURE_NAME: human TRPV1 H+ (max % remain)

>>> readout_value("CC(C)(C)c1ccc2c(c1)CC[C@H]2NC(=O)Nc1cccc2[nH]ncc12 [C, reference compound]")
"1%"
>>> readout_value("O=C(Nc1cccc2c1C[C@@H](O)C2)N[C@@H]1CCOc2c(OC(F)(F)F)cccc21")
"18%"
>>> readout_value("O=C(Nc1cccc2c1C[C@@H](O)C2)N[C@@H]1CC(CF)(CF)Oc2cc(OC(F)(F)F)ccc21")
"1%"
>>> readout_value("O=C(Nc1ccc(F)c2c1C[C@H](O)C2)N[C@@H]1CC(CF)(CF)Oc2ccccc21")
"6%"

* * *

Target: human TRPV1 (Homo sapiens, UniProt Q8NER1)
Construct: expressed in transfected cells
Assay: Acid Activation Assay (pH 5.0, FLIPR intracellular Ca2+, recombinant HEK293 cells)
Format: cell-based
Details: percentage of maximal pH 5.0-induced response remaining; HEK293 hTRPV1; max concentration 37.5 μM
MEASURE_NAME: human TRPV1 H+ (max % remain) (%)

>>> readout_value("O=C(NCC1CCc2cc(C(F)(F)F)ccc2O1)Nc1cccc2c1C[C@H](O)C2 (stereo partly shown) [Example 26]")
66
>>> readout_value("O=C(Nc1cccc2c1C[C@@H](O)C2)N[C@@H]1CC(CF)(CF)Oc2c(F)cc(F)cc21 [Example 79]")
15
>>> readout_value("C[C@@]1(CF)C[C@@H](NC(=O)Nc2cccc3c2C[C@H](O)C3)c2ccc(Cl)cc2O1 [Example 16]")
57
>>> readout_value("O=C(Nc1cccc2c1C[C@H](O)C2)N[C@@H]1CC(CF)(CF)Oc2c(F)cc(F)cc21 [Example 1]")
61
>>> readout_value("C[C@]1(CF)C[C@@H](NC(=O)Nc2cccc3c2C[C@H](O)C3)c2cccc(F)c2O1 [Example 66]")
86
>>> readout_value("O=C(Nc1cccc2c1C[C@H](O)C2)N[C@@H]1CC(CF)(CF)Oc2cc(Cl)ccc21 [Example 4]")
57
>>> readout_value("O=C(Nc1cccc2c1CC(O)C2)NC1c2ccccc2OCC1c1ccc(Cl)cc1 (stereo not shown) [Example 115]")
94
>>> readout_value("O=C(Nc1cccc2c1C[C@@H](O)C2)N[C@@H]1CC(CF)(CF)Oc2cc(C(F)(F)F)ccc21 [Example 74]")
2
>>> readout_value("C[C@]1(C(F)F)C[C@@H](NC(=O)Nc2cccc3c2C[C@H](O)C3)c2ccccc2O1 [Example 127]")
62
>>> readout_value("O=C(Nc1ccc(F)c2c1C[C@@H](O)C2)N[C@@H]1CCOc2cc(OC(F)(F)F)ccc21 [Example 168]")
70
>>> readout_value("CC1(C)C[C@@H](NC(=O)Nc2ccc(F)c3c2C[C@@H](O)C3)c2ccc(F)c(F)c2O1 [Example 171]")
47
>>> readout_value("O=C(Nc1cccc2c1C[C@H](O)C2)N[C@@H]1CC(CF)(CF)Oc2c1ccc(Cl)c2F [Example 11]")
64
>>> readout_value("O=C(Nc1cccc2c1C[C@@H](O)C2)N[C@@H]1CCOc2cc(OC(F)(F)F)ccc21 [Example 37]")
4
>>> readout_value("O=C(NCC1COc2ccc(F)cc2C1)Nc1cccc2c1C[C@H](O)C2 (stereo partly shown) [Example 28]")
58
>>> readout_value("C[C@]1(CF)C[C@@H](NC(=O)Nc2cccc3c2C[C@H](O)C3)c2ccc(Cl)cc2O1 [Example 15]")
63
>>> readout_value("CC1(C)C[C@@H](NC(=O)Nc2ccc(F)c3c2C[C@@H](O)C3)c2cccc(C(F)(F)F)c2O1 [Example 156]")
40

* * *

Biological target: human TRPV1 (Homo sapiens, UniProt Q8NER1)
Construct: expressed in transfected cells
Test: Acid Activation Assay (pH 5.0, FLIPR intracellular Ca2+, recombinant HEK293 cells)
Assay type: cell-based
Conditions: percentage of maximal pH 5.0-induced response remaining; HEK293 hTRPV1; max concentration 37.5 μM
Overview of recorded human TRPV1 H+ (max % remain) for various compounds
MEASURE_NAME: human TRPV1 H+ (max % remain) (%)

>>> readout_value("C[C@@]1(CF)C[C@@H](NC(=O)Nc2cccc3c2C[C@H](O)C3)c2ccc(C(F)(F)F)cc2O1")
52
>>> readout_value("O=C(Nc1c(F)ccc2c1C[C@H](O)C2)N[C@@H]1CC(CF)(CF)Oc2cc(C(F)(F)F)ccc21")
2
>>> readout_value("CCC1(CC)C[C@@H](NC(=O)Nc2cccc3c2C[C@H](O)C3)c2ccc(Cl)c(Cl)c2O1")
72
>>> readout_value("O=C(Nc1cccc2c1C[C@@H](O)C2)N[C@H]1CC2(CCC2)Oc2ccc(F)cc21")
63
>>> readout_value("Cc1nc(Nc2cccc3c2C[C@H](O)CC3)oc1-c1ccc(C(F)(F)F)cc1 [Example D, reference compound]")
3
>>> readout_value("CC1(C)C[C@@H](NC(=O)Nc2ccc(F)c3c2C[C@H](O)C3)c2ccc(Cl)cc2O1")
2
>>> readout_value("CC1(C)C[C@@H](NC(=O)Nc2ccc(F)c3c2C[C@H](O)C3)c2cccc(OC(F)(F)F)c2O1")
3
>>> readout_value("O=C(Nc1ccc(F)c2c1C[C@H](O)C2)N[C@@H]1CC(CF)(CF)Oc2c(F)cc(F)cc21")
4
>>> readout_value("O=C(Nc1cccc2c1C[C@@H](O)C2)N[C@@H]1CC(CF)(CF)Oc2c(Cl)cccc21")
40
>>> readout_value("CC1(C)C[C@@H](NC(=O)Nc2ccc(F)c3c2C[C@H](O)C3)c2cccc(F)c2O1")
5
>>> readout_value("O=C(Nc1cccc2c1CC(O)C2)NC1c2ccccc2OCC1Cc1ccccc1 (stereo not shown)")
94
>>> readout_value("CC1(C)C[C@@H](NC(=O)Nc2ccc(F)c3c2C[C@H](O)C3)c2ccccc2O1")
7
>>> readout_value("CC1(C)C[C@@H](NC(=O)Nc2cccc3c2C[C@H](O)C3)c2ccccc2O1")
82
>>> readout_value("O=C(Nc1cccc2c1C[C@@H](O)C2)N[C@H]1CCOc2cc(OC(F)(F)F)ccc21")
47
>>> readout_value("O=C(Nc1cccc2c1CC(O)C2)NC1CC(c2ccccc2Cl)Oc2ccccc21 (stereo not shown)")
51
>>> readout_value("O=C(Nc1cccc2c1C[C@H](O)C2)N[C@H]1CCOc2cc(OC(F)(F)F)ccc21")
57
>>> readout_value("O=C(Nc1cccc2c1C[C@@H](O)C2)N[C@@H]1CC(CF)(CF)Oc2c(F)cccc21")
50
>>> readout_value("CC1(C)C[C@@H](NC(=O)Nc2cccc3c2C[C@@H](O)C3)c2cc(F)ccc2O1")
27
>>> readout_value("O=C(Nc1cccc2c1C[C@H](O)C2)N[C@@H]1CC(CF)(CF)Oc2cc(C(F)F)ccc21")
85
>>> readout_value("CC1(C)C[C@@H](NC(=O)Nc2cccc3c2C[C@@H](O)C3)c2cccc(OC(F)(F)F)c2O1")
23
>>> readout_value("CC1(C)C[C@@H](NC(=O)Nc2cccc3c2C[C@@H](O)C3)c2ccc(F)c(F)c2O1")
43
>>> readout_value("CC1(C)C[C@@H](NC(=O)Nc2ccc(F)c3c2C[C@H](O)C3)c2cccc(C(F)(F)F)c2O1")
3
>>> readout_value("C[C@]1(CF)C[C@@H](NC(=O)Nc2cccc3c2C[C@H](O)C3)c2ccc(C(F)(F)F)cc2O1")
48
>>> readout_value("O=C(Nc1ccc(F)c2c1CC(O)C2)NC1CCc2cc(C(F)(F)F)ccc21 (stereo not shown)")
19
>>> readout_value("CC1(C)C[C@H](NC(=O)Nc2cccc3c2C[C@@H](O)C3)c2cc(F)ccc2O1")
99
>>> readout_value("CC(C)(C)c1cccc2c1OCC[C@H]2NC(=O)Nc1cccc2c1C[C@H](O)C2")
70
>>> readout_value("O=C(Nc1cccc2c1C[C@H](O)C2)N[C@@H]1CCOc2cc(C(F)(F)F)ccc21")
74
>>> readout_value("C[C@]1(CF)C[C@@H](NC(=O)Nc2c(F)ccc3c2CC(O)C3)c2ccc(Cl)cc2O1 (stereo partly shown)")
30
>>> readout_value("CC1(C)C[C@@H](NC(=O)Nc2ccc(F)c3c2C[C@H](O)C3)c2cc(F)ccc2O1")
7
>>> readout_value("O=C(Nc1ccc(F)c2c1C[C@@H](O)C2)N[C@@H]1CC(CF)(CF)Oc2ccc(F)cc21")
47
>>> readout_value("CC1(C)C[C@@H](NC(=O)Nc2cccc3c2C[C@@H](O)C3)c2ccc(Cl)c(F)c2O1")
14
